molecular target: Integrin beta-1 (Homo sapiens) + Integrin alpha-4 (Homo sapiens) (UniProt P13612+P05556); assay: alpha4beta1 integrin LIBS antibody binding reduction – U937 cells, HUTS-21 mAb, flow cytometry, validation set, VLA-4 allosteric modulator project, pilot screen (AID 2674); details: HUTS-21 LIBS mAb binding, at 6.7 µM, stronger effect = higher value, binding induced by LDV ligand;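 also: antibody binding induced by the VLA-4 ligand LDV present at three times its Kd; 0% = LDV ligand with antibody and no compound and 100% = antibody without LDV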
Sequence (P05556 whole entry, looked up): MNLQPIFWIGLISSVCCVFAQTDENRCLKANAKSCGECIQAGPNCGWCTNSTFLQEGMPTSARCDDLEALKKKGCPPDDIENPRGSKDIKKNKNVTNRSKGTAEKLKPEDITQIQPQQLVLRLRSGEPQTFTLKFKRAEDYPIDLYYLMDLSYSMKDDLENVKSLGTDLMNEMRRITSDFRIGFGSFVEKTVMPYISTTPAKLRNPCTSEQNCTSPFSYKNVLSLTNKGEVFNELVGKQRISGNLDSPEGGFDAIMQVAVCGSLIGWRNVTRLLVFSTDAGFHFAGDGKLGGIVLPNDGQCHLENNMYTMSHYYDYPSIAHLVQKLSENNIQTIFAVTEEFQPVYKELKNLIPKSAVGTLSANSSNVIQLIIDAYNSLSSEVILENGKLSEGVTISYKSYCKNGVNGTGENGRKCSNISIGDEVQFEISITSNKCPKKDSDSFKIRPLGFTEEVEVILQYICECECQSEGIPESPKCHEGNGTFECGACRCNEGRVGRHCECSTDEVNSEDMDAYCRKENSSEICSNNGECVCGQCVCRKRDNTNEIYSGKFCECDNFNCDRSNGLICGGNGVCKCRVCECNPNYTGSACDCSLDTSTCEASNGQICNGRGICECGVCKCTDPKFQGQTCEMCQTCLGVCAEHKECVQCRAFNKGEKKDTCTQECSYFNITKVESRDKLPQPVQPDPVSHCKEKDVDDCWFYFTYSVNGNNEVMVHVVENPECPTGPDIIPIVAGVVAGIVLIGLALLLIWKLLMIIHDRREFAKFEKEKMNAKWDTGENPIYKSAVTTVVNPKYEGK
Sequence (P13612 whole entry, looked up): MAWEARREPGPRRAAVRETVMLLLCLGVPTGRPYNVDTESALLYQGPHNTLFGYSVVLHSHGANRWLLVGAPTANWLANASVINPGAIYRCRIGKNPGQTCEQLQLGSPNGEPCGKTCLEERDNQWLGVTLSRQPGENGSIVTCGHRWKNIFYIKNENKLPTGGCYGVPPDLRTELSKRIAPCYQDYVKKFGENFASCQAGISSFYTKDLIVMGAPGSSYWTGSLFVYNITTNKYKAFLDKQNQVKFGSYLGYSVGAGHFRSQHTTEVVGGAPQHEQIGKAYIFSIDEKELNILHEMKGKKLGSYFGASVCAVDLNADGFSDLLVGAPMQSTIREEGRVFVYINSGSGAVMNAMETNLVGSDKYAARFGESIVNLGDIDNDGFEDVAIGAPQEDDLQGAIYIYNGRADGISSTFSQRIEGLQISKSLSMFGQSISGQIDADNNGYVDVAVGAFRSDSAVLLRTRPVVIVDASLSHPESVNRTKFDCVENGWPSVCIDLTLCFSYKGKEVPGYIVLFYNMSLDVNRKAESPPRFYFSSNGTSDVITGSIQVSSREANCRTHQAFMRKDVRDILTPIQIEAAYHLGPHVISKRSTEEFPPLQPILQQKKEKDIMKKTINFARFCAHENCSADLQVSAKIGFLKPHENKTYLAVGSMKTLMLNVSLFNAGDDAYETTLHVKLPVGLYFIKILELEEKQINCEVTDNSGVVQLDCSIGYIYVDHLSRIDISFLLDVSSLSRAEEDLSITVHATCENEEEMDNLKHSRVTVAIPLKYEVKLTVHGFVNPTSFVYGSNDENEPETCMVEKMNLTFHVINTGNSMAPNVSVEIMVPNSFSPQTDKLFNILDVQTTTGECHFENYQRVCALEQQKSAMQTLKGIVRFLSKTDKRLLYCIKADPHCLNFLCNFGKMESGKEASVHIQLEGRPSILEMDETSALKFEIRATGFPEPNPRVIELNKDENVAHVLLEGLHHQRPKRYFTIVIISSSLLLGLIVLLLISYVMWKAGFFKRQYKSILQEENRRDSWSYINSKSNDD
ASSAY_ENDPOINT: inhibition (%)
Answers are plain numbers, in %.

// worked examples, inhibition included
{"MOLECULE": "C=C1C2(C(=O)Nc3ccc(SC(F)F)cc3)CCC(C2)C1(C)C (configuration not stated)", "inhibition (%)": 1.62}
{"MOLECULE": "Cn1c(=O)c2[nH]cnc2n(C)c1=O", "inhibition (%)": -1.3}

Batch of 7 molecules: report inhibition for each.
1. CCOc1ncnc2c1[nH]c1ccccc12
2. Cc1cc(C)c(NC(=O)NC(=O)C(Cl)(Cl)Cl)c(C)c1
3. Cc1ccc2c(c1)C(CCN)C(=O)N2Cc1ccccc1 (configuration not stated)
4. COc1ccccc1N1C(=O)C2CC(C)=C(C)CC2C1=O (configuration not stated)
5. CC(C)C12CN3CC(C(C)C)(CN(C1)C3c1ccccc1)C2O (configuration not stated)
6. COc1cc(NS(=O)(=O)c2ccc(N)cc2)nc(OC)n1
7. Fc1ccc(-n2cc(CNCCc3ccccn3)c(-c3ccccc3Cl)n2)cc1

1. -8.62
2. 13
3. -6.68
4. 19.7
5. 14.2
6. -1.74
7. 15.9

Batch of 3 molecules: report inhibition for each.
1. COc1cc2c3c(c1)C(C)CC(C)(C)N3C(=O)C2=O (configuration not stated)
2. Cc1ccc(OCCCCn2ccnc2C)c(C)c1
3. S=C(NCCOCCOCCNC(=S)Nc1ccccc1)Nc1ccccc1

[15.2, 30.4, -22.3]

Batch of 5 molecules: report inhibition for each.
1. CC12CN3CC(C)(CN(C1)C3c1ccc(Br)cc1O)C2 (configuration not stated)
2. COc1cccc2c(=O)c3ccccc3oc12
3. O=C(OCCNC(=O)c1ccc2ccccc2n1)c1ccc(F)cc1
4. N#Cc1cc2c([nH]c1=O)CCCC2
5. COC(=O)CCC(=O)CN

6.55
-9.06
2.66
16.1
-5.11

====

target: Guanine nucleotide-binding protein G(o) subunit alpha (Homo sapiens) (UniProt P09471); assay: retest of RGS8-Galphao interaction hits – biochemical, multiplexed bead flow cytometry, single concentration, confirmation (AID 1836); settings: bead-based flow cytometry RGS8-Galphao binding, fluorescence; at 10 µM; actives lie on both sides;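 also: Galphao activated as GDP AlF4 complex before binding bead RGS8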
Sequence (P09471 whole entry, looked up): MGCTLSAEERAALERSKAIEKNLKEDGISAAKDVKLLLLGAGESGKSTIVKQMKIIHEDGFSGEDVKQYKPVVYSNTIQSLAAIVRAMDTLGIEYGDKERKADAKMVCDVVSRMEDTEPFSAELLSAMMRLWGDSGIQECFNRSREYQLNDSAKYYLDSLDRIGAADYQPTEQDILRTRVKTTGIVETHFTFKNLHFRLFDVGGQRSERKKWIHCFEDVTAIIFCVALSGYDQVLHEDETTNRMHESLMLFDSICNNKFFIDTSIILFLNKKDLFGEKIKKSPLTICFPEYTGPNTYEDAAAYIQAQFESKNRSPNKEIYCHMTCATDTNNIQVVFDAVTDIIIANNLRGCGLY
The list shows a part of the results.
Would you kindly list binding response (% of control) for each of these molecules?
Numbers only, in %.

// worked examples, binding response (% of control) included
{"MOLECULE": "Cc1cc(C)nc(/N=C2\\NC(=O)CC(C(=O)O)N2c2ccc(Cl)cc2Cl)n1 (stereo not given)", "binding response (% of control) (%)": 102}
{"MOLECULE": "CCC(=O)Nc1c(S(=O)(=O)c2ccccc2)c2nc3ccccc3nc2n1Cc1ccccc1", "binding response (% of control) (%)": 103}
{"MOLECULE": "CC(=O)N1CC[n+]2c(-c3ccc([N+](=O)[O-])cc3)csc21", "binding response (% of control) (%)": 80.5}
{"MOLECULE": "O=C(Nc1cccc(-c2nc3ccccc3[nH]2)c1)c1ccc(C(=O)Nc2cccc(-c3nc4ccccc4[nH]3)c2)cc1", "binding response (% of control) (%)": 104}

# input molecule: "COc1ccc(CCNC(=O)c2cc3sccc3n2C)cc1OC" ; wanted: its binding response (% of control)
103

====

test: TOR pathway LAP4-GFP level changes – S. cerevisiae, multiplex flow cytometry, primary screen (AID 1873); details: S. cerevisiae LAP4-GFP expression, 3 h, at 10 µM, stronger effect = higher value
Results filed as inconclusive are left out.
Would you kindly list GFP response vs DMSO for each of these compounds?
Numbers only, in %.

// worked examples, GFP response vs DMSO included
{"COMPOUND": "C#C[C@]1(O)CC[C@H]2[C@@H]3CCc4cc(O)ccc4[C@H]3CC[C@@]21C", "ASSAY_ENDPOINT": "GFP response vs DMSO", "RECORDED_VALUE": 84.7}
{"COMPOUND": "COc1ccc(C2CC(c3ccc([N+](=O)[O-])cc3)=NN2C(=O)c2ccccc2)cc1OC (stereo not drawn)", "ASSAY_ENDPOINT": "GFP response vs DMSO", "RECORDED_VALUE": 108}

In the following, a different compound is considered.
# input compound: "COc1ccc(N2CCN(C(=S)NCc3ccccc3)CC2)cc1" ; wanted: its GFP response vs DMSO
81.4

====

molecular target: GTPase HRas (Homo sapiens); experiment: blockade of GTP loading onto mutant Ras – biochemical, activated mutant, multiplex bead flow cytometry, dose response (AID 1341); settings: bead-based flow cytometry, Bodipy-FL-GTP binding; series mostly up to 100 µM;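 also: GST-tagged constitutively activated Ras mutant immobilized on beads and multiplexed with other GTPases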
Entries with a potency or affinity are not part of this list. Active and inactive are the calls of the source.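 Rule for the calls: active = dose-response curve with midpoint inside the tested range, moderate steepness, significant amplitude and little compound fluorescence or bead-attachment interference; inactive = the rest.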
ASSAY_ENDPOINT: outcome

// worked examples, outcome included
{"COMPOUND": "Cc1cc(C)n2nc(C(=O)N3CCCC(CNS(=O)(=O)c4cccs4)C3)cc2n1 (configuration not stated)", "outcome": "inactive"}
{"COMPOUND": "Cc1ccn2c(NCc3ccc4c(c3)OCO4)c(-c3ccc(O)cc3)nc2c1", "outcome": "inactive"}
{"COMPOUND": "CCCN1C(=O)/C(=C\\C=C2/Sc3ccccc3N2CC)SC1=S", "outcome": "inactive"}
{"COMPOUND": "C=CCc1ccccc1OCC(O)CN1CCN(C(=O)OCC)CC1 (configuration not stated)", "outcome": "inactive"}
{"COMPOUND": "O=C(O)c1cc([N+](=O)[O-])ccc1NCc1ccccc1", "outcome": "inactive"}

Batch of 7 compounds: report outcome for each.
1. COc1ccc(C(CC(=O)O)NC(=O)c2cc3cc(Br)ccc3oc2=O)cc1OC (configuration not stated)
2. Cn1cccc1/C=C1\SC(=S)N(NC(=O)c2ccccc2Cl)C1=O
3. CC(=O)c1cc2c(cc1NC(=O)c1cccc(S(=O)(=O)N3CCN(C)CC3)c1)OCO2
4. COC(=O)c1c(N2C(=O)[C@H]3[C@@H](C2=O)[C@]2(C(=O)Nc4c(C)cc(C)cc42)N2CCC[C@@H]32)sc(C)c1C
5. Cn1cc(C(=O)N2CCc3ccccc3C2)c(=O)c2cc(S(=O)(=O)N3CCCCC3)ccc21
6. COc1cccc(N2CCN(C(=O)CCCCCNc3nc(=S)[nH]c4ccccc34)CC2)c1
7. O=C(C#Cc1ccccc1)c1ccc([N+](=O)[O-])cc1

inactive
inactive
inactive
inactive
inactive
inactive
inactive

====

Would you kindly list inhibition for each of these molecules?
target: ATP-binding cassette sub-family B member 6 (Homo sapiens) (UniProt Q9NP58); experiment: blockers of ABCB6-driven porphyrin uptake – K562-ABCB6 cells, flow cytometry, validation set, pilot screen (AID 588550); conditions: K562-ABCB6 porphyrin accumulation, 1 h, at 10 µM, stronger effect = higher value;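 also: 0% = DMSO wells and 100% = benzethonium chloride 70 µM positive control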
Sequence (Q9NP58 whole entry, looked up): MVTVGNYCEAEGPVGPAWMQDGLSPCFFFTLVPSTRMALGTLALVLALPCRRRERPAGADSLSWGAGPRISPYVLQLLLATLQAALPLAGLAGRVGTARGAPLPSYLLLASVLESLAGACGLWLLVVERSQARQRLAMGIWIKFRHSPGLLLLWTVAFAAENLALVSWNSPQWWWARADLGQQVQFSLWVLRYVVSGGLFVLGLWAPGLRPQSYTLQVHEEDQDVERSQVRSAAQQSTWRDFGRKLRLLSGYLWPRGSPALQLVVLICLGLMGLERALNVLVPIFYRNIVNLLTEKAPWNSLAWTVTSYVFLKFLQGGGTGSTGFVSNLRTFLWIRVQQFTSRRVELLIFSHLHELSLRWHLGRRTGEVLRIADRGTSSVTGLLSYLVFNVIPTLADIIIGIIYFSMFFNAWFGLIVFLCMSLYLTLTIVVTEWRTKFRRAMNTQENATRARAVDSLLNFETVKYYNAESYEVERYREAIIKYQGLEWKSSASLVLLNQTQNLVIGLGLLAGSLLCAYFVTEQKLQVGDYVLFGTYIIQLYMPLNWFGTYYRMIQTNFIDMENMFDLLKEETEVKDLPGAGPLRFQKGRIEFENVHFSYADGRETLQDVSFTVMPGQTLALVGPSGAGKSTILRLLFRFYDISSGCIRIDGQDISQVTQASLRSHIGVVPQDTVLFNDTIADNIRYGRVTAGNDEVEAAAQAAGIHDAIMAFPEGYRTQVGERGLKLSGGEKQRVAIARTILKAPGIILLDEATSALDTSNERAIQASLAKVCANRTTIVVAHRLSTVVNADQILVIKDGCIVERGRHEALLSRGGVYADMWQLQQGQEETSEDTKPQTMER
Numbers only, in %.

{"MOLECULE": "N=c1c[n+](N2CCOCC2)[n-]o1", "UNIT_TEXT": "%", "RECORDED_VALUE": 9}
{"MOLECULE": "CC(C)CCn1c(N2CCc3ccccc3C2)nc2c1c(=O)[nH]c(=O)n2C", "UNIT_TEXT": "%", "RECORDED_VALUE": 12}
{"MOLECULE": "CC12CN3CC(C)(CN(C1)C3c1ccc([N+](=O)[O-])o1)C2 (stereo unspecified)", "UNIT_TEXT": "%", "RECORDED_VALUE": -9}
{"MOLECULE": "CC(=O)Nc1c(I)c(NC(C)=O)c(I)c(C(=O)O)c1I", "UNIT_TEXT": "%", "RECORDED_VALUE": 9}
{"MOLECULE": "CCOC(=O)C(=O)N1CCN(c2ccccc2OC)CC1", "UNIT_TEXT": "%", "RECORDED_VALUE": 7}

# input molecule: CCCCCCCCCC(=O)OCC(O)CO (stereo unspecified) ; wanted: its inhibition
5

====

molecular target: AP-2 complex subunit beta (Homo sapiens) (UniProt P63010); assay: beta-arrestin/AP2 interaction blockers – biochemical, validation set, GST-AP2 beads, flow cytometry, pilot screen (AID 504541); details: FITC arrestin peptide, at 10 µM, stronger effect = higher value, AP2 beta2 appendage fragment, R879A mutant;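 also: AP2 carries R879A mutation and is captured from E. coli lysate; bead-bound FITC arrestin peptide fluorescence measuring arrestin peptide binding to AP2; 0% = DMSO wells and 100% = excess unlabeled arrestin peptide control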
Sequence (P63010 whole entry, looked up, the tested form may be a part, one chain of several): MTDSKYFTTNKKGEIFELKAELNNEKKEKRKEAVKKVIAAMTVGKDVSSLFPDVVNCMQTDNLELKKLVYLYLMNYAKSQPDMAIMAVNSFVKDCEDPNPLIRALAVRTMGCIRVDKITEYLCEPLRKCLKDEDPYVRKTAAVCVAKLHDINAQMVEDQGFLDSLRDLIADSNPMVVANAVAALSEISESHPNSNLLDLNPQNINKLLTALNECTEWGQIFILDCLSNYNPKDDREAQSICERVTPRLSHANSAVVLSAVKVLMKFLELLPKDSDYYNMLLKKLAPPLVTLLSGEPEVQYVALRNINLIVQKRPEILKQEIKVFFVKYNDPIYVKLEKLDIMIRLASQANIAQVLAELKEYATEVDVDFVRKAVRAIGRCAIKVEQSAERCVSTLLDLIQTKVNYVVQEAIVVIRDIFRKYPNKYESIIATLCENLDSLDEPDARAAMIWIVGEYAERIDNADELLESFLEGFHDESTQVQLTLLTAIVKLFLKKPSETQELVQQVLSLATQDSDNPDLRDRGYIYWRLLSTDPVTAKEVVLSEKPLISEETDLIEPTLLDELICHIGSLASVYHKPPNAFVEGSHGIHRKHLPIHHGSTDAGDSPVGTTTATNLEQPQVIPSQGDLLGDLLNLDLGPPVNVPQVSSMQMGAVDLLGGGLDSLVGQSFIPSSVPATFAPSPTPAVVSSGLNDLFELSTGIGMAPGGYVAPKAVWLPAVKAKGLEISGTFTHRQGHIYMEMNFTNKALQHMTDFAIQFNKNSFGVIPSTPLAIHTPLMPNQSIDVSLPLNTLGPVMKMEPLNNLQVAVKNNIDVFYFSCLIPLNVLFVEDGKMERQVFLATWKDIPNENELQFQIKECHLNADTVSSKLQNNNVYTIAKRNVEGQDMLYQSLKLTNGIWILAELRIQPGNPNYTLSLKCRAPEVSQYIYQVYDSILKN
Would you kindly list inhibition for each of these molecules?
Numbers only, in %.

// worked examples, inhibition included
{"MOLECULE": "O=C(Oc1ccccc1)Oc1ccc2c(c1)oc(=O)c1ccccc12", "inhibition [%]": 4.7}
{"MOLECULE": "NC(N)=NC(N)=NCCc1ccccc1", "inhibition [%]": 7.19}
{"MOLECULE": "CC(=O)[C@@H]1[C@@H](C(=O)c2ccc(C)cc2)[C@]2(C(=O)Nc3ccccc32)[C@H]2C=Cc3cc(F)ccc3N12", "inhibition [%]": 4.08}
{"MOLECULE": "Cc1cccc(C)c1NC(=O)C1CCCCN1C (centres undefined)", "inhibition [%]": 15.4}
{"MOLECULE": "CN/C(=C/[N+](=O)[O-])NCCSCc1ccc(CN(C)C)o1", "inhibition [%]": -0.41}

Batch of 8 molecules: report inhibition for each.
1. Cc1cccc2c(=O)n3c(nc12)CCCCC3
2. CN1CCc2c(n(CC(O)CN(CCO)CCO)c3ccccc23)C1=O (centres undefined)
3. COc1cc2c(cc1OC)-c1cc(NC3CCCCCC3)nc(=O)n1CC2
4. CC(NCCc1ccc(O)cc1)C(O)c1ccc(O)cc1 (centres undefined)
5. N#C/C(=C/c1ccccc1)C(=O)NCc1ccccc1
6. CCN1C(=O)C(CC(=O)Nc2ccc(F)cc2)N(Cc2ccco2)C1=S (centres undefined)
7. COc1ccc(CN2CCC(=O)NC2=O)cc1
8. COC(=O)CSc1nc2ccc(N)cc2s1

[-3.62, 13.6, 17, 5.41, 8.66, -8.85, 33.2, 4.01]
